Reported values of apparent KD of MS2 coat protein for individual entries
System: MS2 coat protein
Assay: apparent KD of MS2 coat protein; higher = weaker reporter binding
Settings: Eterna round: R101; input ligand: FMN 200 uM
Answer format: numeric, nM implied, no suffix.

# seq, readout-unit, endpoint-value
rows = [
    ("AAAUAAUCCUUAGGAUAUGACUCCGAAACGGAGUCAGAAGGGAGGAUCACCCUCUUCAGCUCAGCGUCGAAAGACGCUGAGCAA [#SharedSequence ExNG1 - 22] (puzzle (switch architecture): Exclusion NG 1)", "nM", 200),
    ("GGAUAGGACAGAGGAUAUACGUGCUAGAGAUACUAGCAAAAUUUCCUCACAUGAGGAUCACCCAUGUAGAAGGCUGUCCUAUCG (puzzle (switch architecture): Exclusion NG 2)", "nM", 415),
]

Next up:
Q) Report value: apparent KD of MS2 coat protein, system: MS2 coat protein, sequence: GGUCGACUUCAAGGAUAUGGACUGCAAAGCAGUCCAGAAGGUGAGGAUCACCCAUCUACGGUCAGGAAACUGACCGAUCGACCA [#SharedSequence - ExNG1-8] (puzzle (switch architecture): Exclusion NG 1)
A) 117

---

Test system: MS2 coat protein
Assay: apparent KD of MS2 coat protein; higher = weaker reporter binding
Conditions: Eterna round: R101; input ligand: none
Here, each record is paired with measured apparent KD of MS2 coat protein data.
Write the answer as a number in µM, unit excluded.

Guide cases for apparent KD of MS2 coat protein, answers given:
# seq, readout-unit, apparent KD of MS2 coat protein
data = [
    ("GACUGCAGGAUAACAACCUGCAGUCACUUCUGAGGAUCACCCAGAAGGGCUGAGGUAAUACCUCAGCAGGAUAUGGAGUGUAAA [#SharedSequence IExNG# - 8] (puzzle (switch architecture): Inverted Exclusion NG 3)", "µM", 0.0219),
    ("GUCACGGUUAAUUCCGUGACGCGCAAUCCUUGAGGAUCACCCAAGGAUAUCGACGUCAAUGACGUCGAGAAGGUGGUUGAGCGC [#SharedSequence2] (puzzle (switch architecture): Exclusion NG 3)", "µM", 0.0136),
    ("AAAUAACUUGAAGGAUAUCAGGGUGCACCUCAGUAAAACUGAGGUGCACCCUGAGAAGGUCGAGGAUCACCCGACCUAGUGAAA [#SharedSequence SLExNG1: 7-2] (puzzle (switch architecture): Small Loop Exclusion NG 1)", "µM", 0.0068),
]

Q) Please report the measured apparent KD of MS2 coat protein for GGAGAUACAUGAGGAUCACCCAUGUAGGAUAUCGGGCCCGGGCCCGGCGAAAGCCGGGCCCGGGCCGAGAAGGGCGUACACACC [#LOL-2] (puzzle (switch architecture): Small Loop Exclusion NG 3)
A) 0.0073

---

System: MS2 coat protein
Assay: apparent KD of MS2 coat protein; designed switch direction (-1 OFF switch, 1 ON switch): 1; higher = weaker reporter binding
Settings: input ligand: none
Parameter: apparent KD of MS2 coat protein. Scope: all listed entries.
For clarity, give the value followed by its unit.

Consider the following illustrative entries.
# seq, apparent KD of MS2 coat protein
rows = [
    ("CUUUCUCUUGCAGGAUAUCCUAGUCUUCGGUUAGGAGAAGGGCAAGGAAAUUUGCUAAGCAAGUCUGUAACAGAGAUCCUCCUC [pwkr ssNG1 F9.1] (Eterna round: R96, puzzle: Same State NG 1)", "37.9 nM"),
    ("GCUAGAAAUAAAGCCAACAUGAGGAUCACCCAUGUAUGUUGGUAGGAUAUCGUAUGCAAAGCAUACGAGAAGGGCUAAUCUAGC [Mat - Same State NG 3 - JL Mod - D66] (Eterna round: R96, puzzle: Same State NG 3)", "90.2 nM"),
]

Q) // Input: GCAGGACGAUAAUAUAACUUCACAUGAGGAUCACCCAUGUCUCAGGAUAUGGAUCCUAAUUGGAUCCAGAAGGGAGCGUCCUGC [Fiskers NG3ss - 34] (Eterna round: R96, puzzle: Same State NG 3) . Output its apparent KD of MS2 coat protein only.
A) 35.1 nM

Q) Fill in reported apparent KD of MS2 coat protein for this entry: ACAUUUAGCUCUUGCACAUGAGGAUCACCCAUGUUCAGUUCACAGGAUAUCUAGUCAAACGGAUCGGAGAAGGGUGGCAGGAGC [Erquzaa] (Eterna round: R96, puzzle: Same State NG 3)
A) 294 nM

---

Tested on: MS2 coat protein
Experiment: apparent KD of MS2 coat protein; designed switch direction (-1 OFF switch, 1 ON switch): -1; higher = weaker reporter binding
Conditions: Eterna round: R95; input ligand: FMN 200 uM
Each entry gets false (0) if its apparent KD of MS2 coat protein stays under 60 nM, and true (1) if its apparent KD of MS2 coat protein is 60 nM or above.

Study these solved cases before continuing.
# seq, label-value
rows = [
    ("GAGGAGCAAGGAUAUACGAGGAGAGGGAAGAGAGGAGAGAGACAUGAGGAUCACCCAUGUAGAAGGUGCAAGGG [JR_Exclu2_Sub093] (puzzle: Exclusion 2)", "true (1)"),
    ("AGAAGUAGAAACCGAUCCUACAUGAGGAUCACCCAUGUAGCAAGACGUGCACGCGAAGCUCGUCAGACUACCAGAAU [salish99_TOv1_r3_006] (puzzle: Sensor v3, turn-off variant 1)", "true (1)"),
    ("UGGCUACCUUGGUGCUCUACAAGCUUUUUGCUCGUUUUAACAUGAGGAUCACCCAUGUCUAGUGGAUCUGAUCGGGC [JL ViennaUCT Isreen mod 1] (puzzle: Sensor v3, turn-off variant 2)", "true (1)"),
    ("AGAGAGUCAGGAUAUCGAAGGGAGAGGAAAGGAGAGAGGGACGAGAAGGGACAUGAGGAUCACCCAUGUAGGUG [JR_Exclusion4)Sub016] (puzzle: Exclusion 4)", "true (1)"),
    ("GCCAGAGCAGGAUAUUCAAUAUCACACAUGAGGAUCACCCAUGUCUGGCGAAAGCUAGAGGGAGAAGGGCUCUGGC [Mat - Exclusion 5 - Eli mod - D97] (puzzle: Exclusion 5)", "false (0)"),
    ("GGUACUAACACGGAAGUGUUAGUACUAUAAGCUUGUGUUACAUGAGGAUCACCCAUGUCCUCAUAAGCUCGUCUUAU [Mat - Sensor v3 - Turn-off var 2 - D75] (puzzle: Sensor v3, turn-off variant 2)", "true (1)"),
    ("UUUUUCAGGCCAGAUCCUCACAUGAGGAUCACCCAUGUGCUCGUCUGUUUUCGCACUAGCUUUUUUUUGGUAGUGCU [Level Boss var2-15] (puzzle: Sensor v3, turn-off variant 1)", "true (1)"),
    ("CUAGAUCUUCGGAUCUAGUACAUGAGGAUCACCCAUGUGACGAGUAUAUCUUCAAACAAGCUUUUUGCUCGUCUUAU [Sensor v3 - Turn-off variant 1 - 24] (puzzle: Sensor v3, turn-off variant 1)", "false (0)"),
]

Q) Determine whether this sequence has apparent KD of MS2 coat protein no lower than 60 nM: GAAAAGGUAGGAUAUGCGAAAAAAAAGGGUAGAAAAAAAACACAUGAGGAUCACCCAUGUAGAAGGACCAAAAG [salish99_ex2_r3_031] (puzzle: Exclusion 2)
A) false (0)

Q) Hi, just wondering whether UACUUCCGAGGAUAUACAUGAGGAUCACCCAUGUGCUUCAGCAUUGAAAGAUGCAUGGGUAGAAGGCGGUAGUU [LRO-Excl3-18] (puzzle: Exclusion 3) shows apparent KD of MS2 coat protein of 60 nM or higher.
A) true (1)

---

Tested on: MS2 coat protein
Assay: apparent KD of MS2 coat protein; designed switch direction (-1 OFF switch, 1 ON switch): -1; higher = weaker reporter binding
Conditions: Eterna round: R95; input ligand: FMN 200 uM
A collection of sequences and their measured apparent KD of MS2 coat protein
Answer format: numeric, nM implied, no suffix.

# seq, endpoint-value
records = [
    ("GAUUGACAUGAGGAUCACCCAUGUGAGGAUAUCGGCUGGUACGUGUUGGCUUGCCUCUCGAGAAGGCGCAUAGG [Exclusion 1 V55] (puzzle: Exclusion 1)", 140),
    ("AGUACUAACACGAAAGUGUUAGUACAAUAAGCUUGUAAAACAUGAGGAUCACCCAUGUCCUCAUAAGCUCGUCUUAU [Mat - Sensor v3 - Turn-off var 2 - D47] (puzzle: Sensor v3, turn-off variant 2)", 250),
    ("AGAAAGCAAGGAUAUACGAGGAGAAGGUGGAGAGUUAAAGGACAUGAGGAUCACCCAUGUAGAAGGUGCGAGAA [JR_Exclu2_Sub044] (puzzle: Exclusion 2)", 122),
    ("UGGGUACUCCAUAGAAGAAACAUGAGGAUCACCCAUGUAGGGCAAGUUUUUUGCUCGUCAUAGGUUGAGGGAUUGGA [JR_SV3TOV1_Sub016] (puzzle: Sensor v3, turn-off variant 1)", 685),
    ("AAAAAACAAGGAUAUACGAAGGAUGAUUAUCUUAAUUUUUGACAUGAGGAUCACCCAUGUAGAAGGUGUUAAAA [JR_Exclusion2_Sub008] (puzzle: Exclusion 2)", 125),
]

Q) Please give the documented apparent KD of MS2 coat protein of GAACGCCGGCAGGAUAUGGACAGCCAAAAGGCGCCAGAAGGGCCAACAUGAGGAUCACCCAUGUGUCCUGAUGG [Riceanon] (puzzle: Exclusion 6)
A) 10.9

Q) Supply measured apparent KD of MS2 coat protein of GAUUAUGCGAGCUUUAGGGACAUGAGGAUCACCCAUGUUCGUCUUAUUGGUCUAGAUACACUGACAUACCUAAAUCU [JMF 58] (puzzle: Sensor v3, turn-off variant 1) in your reply.
A) 14.8

Q) Give apparent KD of MS2 coat protein for the following sequence: GGUUGACAUGAGGAUCACCCAUGUGAGGAUAUGCGAGAGAAAAAAGUGAGGAAGAAAAGCAGAAGGCGCUGACG [salish99-ex1_r3_002] (puzzle: Exclusion 1)
A) 15.5

Q) Report measured apparent KD of MS2 coat protein; entry is AAUAAUAAGGAGGAUAUCGUAUCCGAAAGGAUACGAGAAGGCCUAACAUGAGGAUCACCCAUGUUCCUCAAUAA [Mat - Exclusion 6 - Eli Mod - D54] (puzzle: Exclusion 6)
A) 773

Q) Query apparent KD of MS2 coat protein for AGUACUAACACGUCGGUGUUAGUACAAUAAGCUUGUGAAACAUGAGGAUCACCCAUGUCCUCAUAAGCUCGUCUUAU [salish99_TOv2_r3_080] (puzzle: Sensor v3, turn-off variant 2)
A) 17.4
